Record: IC50 reported on AChE (electric eel) (Electrophorus electricus).
Measurement kind: IC50

- Compound: "CCCOC(=O)Nc1ccc(C(=O)CCN2CCOCC2)cc1 [Compound 5]"
  Assay result: "> 100 µM"
- Compound: "CCOC(=O)Nc1ccc(C(=O)CCN2CCCCC2)cc1 [Compound 2]"
  Assay result: "8.58 µM"
- Compound: "CCCCOC(=O)Nc1ccc(C(=O)CCN(CC)CCCC)cc1 [Compound 13]"
  Assay result: "> 100 µM"
- Compound: "CCOC(=O)Nc1ccc(C(=O)CCN2CCOCC2)cc1 [Compound 4]"
  Assay result: "> 100 µM"
- Compound: "CCOC(=O)Nc1ccc(C(=O)CCN(CC)CC)cc1 [Compound 6]"
  Assay result: "> 100 µM"
- Compound: "CCCCN(CC)CCC(=O)c1ccc(NC(=O)OCCC)cc1.Cl [Compound 12]"
  Assay result: "> 100 µM"
- Compound: "CCCN(C)CCC(=O)c1ccc(NC(=O)OC)cc1 [Compound 14]"
  Assay result: "> 100 µM"
- Compound: "CCCOC(=O)Nc1ccc(C(=O)CCN2CCCCC2)cc1 [Compound 3]"
  Assay result: "6.57 µM"
- Compound: "CCCN(C)CCC(=O)c1ccc(NC(=O)OCC)cc1 [Compound 15]"
  Assay result: "> 100 µM"
- Compound: "CCCCN(CC)CCC(=O)c1ccc(NC(=O)OC)cc1 [Compound 10]"
  Assay result: "> 100 µM"

----------
Target system: BuChE (equine serum) (Equus caballus, UniProt P81908)
Construct: 20 μL of AChE (electric eel) or BuChE (equine serum) in phosphate solution (2.3 U/mL); from tissue; host or cells: equine serum
Sequence (P81908 whole entry): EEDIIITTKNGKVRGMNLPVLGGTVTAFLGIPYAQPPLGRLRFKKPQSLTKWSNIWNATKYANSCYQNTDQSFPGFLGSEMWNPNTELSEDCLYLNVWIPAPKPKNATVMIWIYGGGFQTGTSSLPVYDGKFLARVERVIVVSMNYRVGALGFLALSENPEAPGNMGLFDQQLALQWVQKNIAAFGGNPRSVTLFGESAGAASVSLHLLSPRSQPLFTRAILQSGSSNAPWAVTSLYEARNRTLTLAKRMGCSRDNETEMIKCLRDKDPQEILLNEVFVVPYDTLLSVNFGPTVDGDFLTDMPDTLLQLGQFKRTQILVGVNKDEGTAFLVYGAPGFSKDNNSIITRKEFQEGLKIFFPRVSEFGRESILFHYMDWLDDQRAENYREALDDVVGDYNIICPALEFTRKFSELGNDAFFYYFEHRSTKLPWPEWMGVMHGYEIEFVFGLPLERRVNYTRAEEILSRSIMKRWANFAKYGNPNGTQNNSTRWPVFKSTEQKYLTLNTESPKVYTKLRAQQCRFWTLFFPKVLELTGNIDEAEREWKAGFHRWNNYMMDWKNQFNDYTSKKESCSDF
Method notes: BuChE inhibition, modified Ellman's method
Type: biochemical
Test parameters: at 100 µM; mean ± SD (n = 5); read-out: BuChE (%) percentage of inhibition
Each entry below carries its recorded inhibition at 100 µM.

- Compound: "COc1ccc2c3c1O[C@H]1C[C@@H](O)C=C[C@@]31CCN(C)C2 [Galantamine, reference compound]"
  inhibition at 100 µM [%]: 62.1
- Compound: "CCN(C)C(=O)Oc1cccc([C@H](C)N(C)C)c1 [Rivastigmine, reference compound]"
  inhibition at 100 µM [%]: 72.9
- Compound: "CCCOC(=O)Nc1ccc(C(=O)CCN2CCCCC2)cc1"
  inhibition at 100 µM [%]: 21
- Compound: "CCOC(=O)Nc1ccc(C(=O)CCN2CCOCC2)cc1"
  inhibition at 100 µM [%]: 17.8
- Compound: "CCCCCN(C)CCC(=O)c1ccc(NC(=O)OCC)cc1.Cl"
  inhibition at 100 µM [%]: 46.3
- Compound: "CCCCN(CC)CCC(=O)c1ccc(NC(=O)OC)cc1"
  inhibition at 100 µM [%]: 43.6
- Compound: "CCCCN(C)CCC(=O)c1ccc(NC(=O)OCC)cc1"
  inhibition at 100 µM [%]: 4.7
- Compound: "CCOC(=O)Nc1ccc(C(=O)CCN(CC)CC)cc1"
  inhibition at 100 µM [%]: 34.2
- Compound: "CCCOC(=O)Nc1ccc(C(=O)CCN2CCOCC2)cc1"
  inhibition at 100 µM [%]: 14.4

----------
Target system: AChE (electric eel) (Electrophorus electricus, UniProt O42275)
Sequence (O42275 24-633): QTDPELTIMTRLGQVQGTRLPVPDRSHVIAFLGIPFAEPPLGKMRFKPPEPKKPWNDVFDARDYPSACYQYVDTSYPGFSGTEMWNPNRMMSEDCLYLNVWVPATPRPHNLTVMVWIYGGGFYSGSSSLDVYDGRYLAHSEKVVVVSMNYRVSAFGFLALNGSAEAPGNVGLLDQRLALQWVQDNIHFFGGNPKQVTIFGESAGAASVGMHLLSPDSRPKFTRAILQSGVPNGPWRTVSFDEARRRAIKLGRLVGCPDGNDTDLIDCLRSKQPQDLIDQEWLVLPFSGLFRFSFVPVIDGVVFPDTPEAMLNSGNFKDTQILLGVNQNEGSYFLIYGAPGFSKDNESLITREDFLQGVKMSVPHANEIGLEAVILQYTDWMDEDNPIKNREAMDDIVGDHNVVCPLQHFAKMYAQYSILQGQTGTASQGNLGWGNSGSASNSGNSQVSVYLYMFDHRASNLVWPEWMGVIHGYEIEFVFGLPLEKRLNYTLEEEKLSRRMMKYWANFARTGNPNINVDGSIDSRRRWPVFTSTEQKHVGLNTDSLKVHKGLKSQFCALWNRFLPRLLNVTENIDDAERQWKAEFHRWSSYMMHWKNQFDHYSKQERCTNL
Method notes: biochemical
Test parameters: at 100 µM; mean ± SD (n = 5); read-out: AChE (%) percentage of inhibition

- Substance smiles: "CCCOC(=O)Nc1ccc(C(=O)CCN2CCCCC2)cc1"
  Reading qualifier: "="
  inhibition at 100 µM (%): 79.4
- Substance smiles: "CCOC(=O)Nc1ccc(C(=O)CCN2CCCCC2)cc1"
  Reading qualifier: "="
  inhibition at 100 µM (%): 77.8
- Substance smiles: "CCCCN(CC)CCC(=O)c1ccc(NC(=O)OCCC)cc1.Cl"
  Reading qualifier: "="
  inhibition at 100 µM (%): 38.4
- Substance smiles: "CCOC(=O)Nc1ccc(C(=O)CCN(CC)CC)cc1"
  Reading qualifier: "="
  inhibition at 100 µM (%): 42.2
- Substance smiles: "CCCN(C)CCC(=O)c1ccc(NC(=O)OCC)cc1"
  Reading qualifier: "="
  inhibition at 100 µM (%): 45.3
- Substance smiles: "CCCN(C)CCC(=O)c1ccc(NC(=O)OC)cc1"
  Reading qualifier: "="
  inhibition at 100 µM (%): 42.2
- Substance smiles: "CCCCCN(C)CCC(=O)c1ccc(NC(=O)OCC)cc1.Cl"
  Reading qualifier: ">"
  inhibition at 100 µM (%): 50
- Substance smiles: "CCOC(=O)Nc1ccc(C(=O)CCN2CCOCC2)cc1"
  Reading qualifier: "="
  inhibition at 100 µM (%): 16.1
- Substance smiles: "CCCCN(C)CCC(=O)c1ccc(NC(=O)OC)cc1"
  Reading qualifier: "="
  inhibition at 100 µM (%): 38
- Substance smiles: "CCCCOC(=O)Nc1ccc(C(=O)CCN(CC)CCCC)cc1"
  Reading qualifier: "="
  inhibition at 100 µM (%): 33.5
- Substance smiles: "CCCOC(=O)Nc1ccc(C(=O)CCN2CCOCC2)cc1"
  Reading qualifier: "="
  inhibition at 100 µM (%): 25.9

----------
Target system: BuChE (equine serum) (Equus caballus, UniProt P81908)
Construct: 20 μL of AChE (electric eel) or BuChE (equine serum) in phosphate solution (2.3 U/mL); from tissue; host or cells: equine serum
Method notes: BuChE inhibition, modified Ellman's method
Format: biochemical
Test parameters: at 100 µM; mean ± SD (n = 5); read-out: BuChE (%) percentage of inhibition

- Compound: "CCCCN(C)CCC(=O)c1ccc(NC(=O)OCCC)cc1 [Compound 9]"
  inhibition at 100 µM: "29%"
- Compound: "COC(=O)Nc1ccc(C(=O)CCN2CCCCC2)cc1 [Compound 1]"
  inhibition at 100 µM: "10%"
- Compound: "CCCCN(C)CCC(=O)c1ccc(NC(=O)OC)cc1 [Compound 7]"
  inhibition at 100 µM: "20.4%"
- Compound: "CCCN(C)CCC(=O)c1ccc(NC(=O)OC)cc1 [Compound 14]"
  inhibition at 100 µM: "22.3%"
- Compound: "CCCCOC(=O)Nc1ccc(C(=O)CCN(CC)CCCC)cc1 [Compound 13]"
  inhibition at 100 µM: "48.7%"
- Compound: "CCOC(=O)Nc1ccc(C(=O)CCN2CCCCC2)cc1 [Compound 2]"
  inhibition at 100 µM: "15.7%"
- Compound: "CCCN(C)CCC(=O)c1ccc(NC(=O)OCC)cc1 [Compound 15]"
  inhibition at 100 µM: "36.8%"

----------
Target system: AChE (electric eel) (Electrophorus electricus, UniProt O42275)
pIC50: −log10 of the molar value.

- Substance smiles: "CCCCN(C)CCC(=O)c1ccc(NC(=O)OCC)cc1"
  Target system: "AChE (electric eel) (Electrophorus electricus, UniProt O42275)"
  pIC50: "< 4.00"
- Substance smiles: "CCCCN(C)CCC(=O)c1ccc(NC(=O)OCCC)cc1"
  Target system: "AChE (electric eel) (Electrophorus electricus, UniProt O42275)"
  pIC50: "< 4.00"
- Substance smiles: "CCCCN(C)CCC(=O)c1ccc(NC(=O)OC)cc1"
  Target system: "AChE (electric eel) (Electrophorus electricus, UniProt O42275)"
  pIC50: "< 4.00"
- Substance smiles: "COC(=O)Nc1ccc(C(=O)CCN2CCCCC2)cc1"
  Target system: "AChE (electric eel) (Electrophorus electricus, UniProt O42275)"
  pIC50: 4.90
- Substance smiles: "CCCCCN(C)CCC(=O)c1ccc(NC(=O)OCC)cc1.Cl"
  Target system: "AChE (electric eel) (Electrophorus electricus, UniProt O42275)"
  pIC50: "< 4.00"
